Tested on: mouse SGLT2 mRNA
Test: Mouse SGLT2 mRNA in kidney, MOE versus Methyleneoxy BNA gapmers (Table 69)
Assay type: in vivo
Details: 25 nmol/kg i.p. twice per week for three weeks, Balb/c mouse kidney
Strand notation (5' to 3'): a small letter for the sugar, then the base; units joined by * are phosphorothioate-linked, units joined directly phosphodiester-linked; [ ] holds rarer units or linkages, { } end groups; capitals alone tell only the bases. e = 2'-O-(2-methoxyethyl) (MOE); l = locked nucleic acid (LNA); [5mC] = 5-methylcytosine; d = 2'-deoxy (DNA)
# maps each entry to its SGLT2 mRNA, percent change relative to saline treated animals
A number alone suffices; assume %.

Check out these entries, answers already filled in.
SUBSTANCE	QUANTITATIVE_RESULT
ISIS 379692: 1-10-1 MOE gapmer, SGLT2 (eT*dG*dT*dT*d[5mC]*d[5mC]*dA*dG*d[5mC]*d[5mC]*d[5mC]*eA)	−46
ISIS 388625: TGTTCCAGCCCA 2-8-2 MOE Gapmer, SGLT2 (eT*eG*dT*dT*d[5mC]*d[5mC]*dA*dG*d[5mC]*d[5mC]*e[5mC]*eA)	−47
ISIS 392170: 1-10-1 Methyleneoxy BNA Gapmer, SGLT2 (lT*dG*dT*dT*d[5mC]*d[5mC]*dA*dG*d[5mC]*d[5mC]*d[5mC]*lA)	−54

# input for lookup
Query: Returns the measured SGLT2 mRNA, percent change relative to saline treated animals for the input substance. Input: ISIS 392173: 2-8-2 Methyleneoxy BNA Gapmer, SGLT2 (lT*lG*dT*dT*d[5mC]*d[5mC]*dA*dG*d[5mC]*d[5mC]*l[5mC]*lA)
Response: −57

* * *

Listed here are substances together with their documented % Inhib.
System: PTP1B mRNA
Test: Antisense inhibition of human PTP1B in HuVEC cells, 3 nM (Table 84)
Type: cell-based
Strand notation (5' to 3'): a small letter for the sugar, then the base; units joined by * are phosphorothioate-linked, units joined directly phosphodiester-linked; [ ] holds rarer units or linkages, { } end groups; capitals alone tell only the bases. e = 2'-O-(2-methoxyethyl) (MOE); [5mC] = 5-methylcytosine; d = 2'-deoxy (DNA)
Only the number, expressed in %, is required.

SUBSTANCE	TESTED_ON	% Inhib [%]
399301 (GTGTGCACACAGCT; all C 5-methyl, all phosphorothioate, sugars by position not given here; further chemistry not fully specified) [compound 399301]	PTP1B mRNA	55
404140 (eG*e[5mC]*dA*d[5mC]*dA*d[5mC]*dA*dG*d[5mC]*dT*dG*dA*eG*eG) [compound 404140]	PTP1B mRNA	73
404139 (eG*eT*dG*d[5mC]*dA*d[5mC]*dA*d[5mC]*dA*dG*d[5mC]*dT*eG*eA) [compound 404139]	PTP1B mRNA	80

Query: API: value(readout= % Inhib, system= PTP1B mRNA, query= 404137 (antisense e[5mC]*eA*dG*dT*dG*dT*dG*d[5mC]*dA*d[5mC]*dA*d[5mC]*eA*eG) [compound 404137] )
Response: 76

Query: Request: % Inhib, test system PTP1B mRNA, entry 404138 (antisense e[5mC]*eT*d[5mC]*dA*dG*dT*dG*dT*dG*d[5mC]*dA*d[5mC]*eA*e[5mC]) [compound 404138]
Response: 76

Source of measurements: patent US8372967B2
